test: Half life in Sprague-Dawley rat at 5 mg/kg, po measured up to 24 hrs by LC-MS/MS analysis
Assay type: ADME, organism-based
test-settings: in vivo
value-kind: half-life
Mention the unit after the number when you answer.

Record excerpt, results attached:
structure-string	half-life
O=C(O)c1ccc2nc(CN3CCC(Oc4cccc(COc5ccc6cnn(CC(F)F)c6c5)n4)CC3)n(C[C@@H]3CCO3)c2n1	4.27 h
COc1cc(C(=O)O)cc2c1nc(CN1CCC(c3cccc(OCc4ccc(C5CC(F)(F)C5)cc4F)n3)CC1)n2C[C@@H]1CCO1	1.5 h
O=C(O)c1cc(F)c2nc(CN3CCC(c4cccc(OCc5ccc(C6CC(F)(F)C6)cc5F)n4)CC3)n(C[C@@H]3CCO3)c2c1	2.3 h

Here is the next item to consider.
Prompt: For the compound "O=C(O)c1ccc2nc(CN3CCC(Oc4cccc(Cc5ccc(Cl)c6c5OCC6)n4)CC3)n(C[C@@H]3CCO3)c2n1" , give its measured half-life value.
Completion: 10.5 h

----------
target-under-test: Glucagon-like peptide 1 receptor (Homo sapiens, UniProt P43220)
Sequence (P43220 whole entry): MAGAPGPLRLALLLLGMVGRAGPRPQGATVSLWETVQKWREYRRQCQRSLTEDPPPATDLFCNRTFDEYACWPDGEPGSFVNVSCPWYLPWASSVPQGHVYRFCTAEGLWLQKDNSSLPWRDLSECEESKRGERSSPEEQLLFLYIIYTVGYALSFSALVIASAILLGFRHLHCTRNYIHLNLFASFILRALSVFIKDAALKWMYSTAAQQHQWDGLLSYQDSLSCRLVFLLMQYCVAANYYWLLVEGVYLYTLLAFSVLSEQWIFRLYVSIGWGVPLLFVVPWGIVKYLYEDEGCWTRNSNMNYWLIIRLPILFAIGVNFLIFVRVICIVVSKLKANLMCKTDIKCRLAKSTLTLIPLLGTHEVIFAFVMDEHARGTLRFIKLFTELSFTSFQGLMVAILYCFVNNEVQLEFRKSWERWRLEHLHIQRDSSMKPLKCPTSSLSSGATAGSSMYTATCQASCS
test: Binding affinity to GLP-1R (unknown origin) at 500 nM measured at 30 to 120 mins by HTRF analysis relative to control
test-settings: filed as agonist, time 30-120 min
value-kind: Activity
Mention the unit after the number when you answer.

compound	target-under-test	experimental-value
O=C(O)c1cc(F)c2nc(CN3CC=C(c4cccc(OCc5ccc(C6CC(F)(F)C6)cc5F)n4)CC3)n(C[C@@H]3CCO3)c2c1	Glucagon-like peptide 1 receptor (Homo sapiens, UniProt P43220)	45.4%
O=C(O)c1ccc2nc(CN3CC=C(c4cccc(OCc5ccc(C6CC(F)(F)C6)cc5F)n4)CC3)n(C[C@@H]3CCO3)c2c1	Glucagon-like peptide 1 receptor (Homo sapiens, UniProt P43220)	57.9%
N#Cc1ccc(COc2cccc(C3CCN(Cc4nc5ccc(C(=O)O)cc5n4C[C@@H]4CCO4)CC3)n2)c(F)c1 [DANUGLIPRON]	Glucagon-like peptide 1 receptor (Homo sapiens, UniProt P43220)	44.9%

Here is the next item to consider.
Prompt: For the compound "COc1cc(C(=O)O)cc2c1nc(CN1CC=C(c3cccc(OCc4ccc(C5CC(F)(F)C5)cc4F)n3)CC1)n2C[C@@H]1CCO1" , give its measured Activity value.
Completion: 69.4%

----------
target-under-test: Glucagon-like peptide 1 receptor (Homo sapiens)
test: Agonist activity at human GLP-1R expressed in HEK293 cells assessed as beta-arrestin2 recruitment incubated for 5 mins by bioluminescence based Envision multiplate reader analysis
Type: functional, cell-based
value-kind: pEC50
For clarity, pEC50 is expressed as the negative log10 of concentration in mol/L.

Prompt: For the molecule "O=C(O)c1ccc2nc(CN3CC=C(c4cccc(OCc5ccc(C6CC(F)(F)C6)cc5F)n4)CC3)n(C[C@@H]3CCO3)c2n1" , give its measured pEC50 value.
Completion: 6.06

----------
target-under-test: Glucagon-like peptide 1 receptor (Homo sapiens, UniProt P43220)
test: Agonist activity at N-terminal hemagglutinin-tagged human GLP-1R expressed in CHO cells co-transfected with pcDNA3.0 assessed as increase in intracellular cAMP accumulation incubated for 30 mins by microplate reader analysis
Assay type: functional, cell-based
pEC50: −log10 of the molar value.
pEC50 vs 9: at or above is y, below is n.

Illustrative cases are given below, each with its answer.
structure-string	assigned-class
O=C(O)c1ccc2nc(CN3CCC(Oc4cccc(COc5ccc(Cl)c6cc(F)oc56)n4)CC3)n(C[C@@H]3CCO3)c2c1	y
N#Cc1ccc(Cc2cccc(OC3CCN(Cc4nc5sc(C(=O)O)cc5n4C[C@@H]4CCO4)CC3)n2)c2occc12	n
O=C(O)c1cc2c(nc(CN3CCC(Oc4cccc(Cc5ccc(Cl)cc5F)n4)CC3)n2C[C@@H]2CCO2)s1	n

Prompt: Textbook exercise: given the entry "CC1(c2ccc(COc3cccc(-c4ccc(Cc5nc6ccc(C(=O)O)nc6n5C[C@@H]5CCO5)c(F)c4)n3)c(F)c2)CC(F)(F)C1" , state whether its pEC50 is greater than or equal to 9.
Completion: n

Prompt: Textbook exercise: given the entry "O=C(O)c1ccc2nc(CN3CC=C(c4cccc(OCc5ccc(CC(F)(F)F)cc5F)n4)CC3)n(C[C@@H]3CCO3)c2n1" , state whether its pEC50 is greater than or equal to 9.
Completion: y

Prompt: Textbook exercise: given the entry "COc1cc(C(=O)O)cc2c1nc(CN1CCC(c3cccc(OCc4ccc(C5CC(F)(F)C5)cc4F)n3)CC1)n2C[C@@H]1CCO1" , state whether its pEC50 is greater than or equal to 9.
Completion: y
